# experimental-details: folding enthalpy; higher = less favourable; fluorescence melt of hairpins on a sequencing array, two-state fit
# condition-set: sodium 0.088 M
Answer no if folding enthalpy is under -30 kcal/mol, and yes if it is -30 kcal/mol or more.

Past entries and their recorded results:
- GTCTGAGGAAACTTGGAC (((..((....))..))): yes
- GCTCGGCGAAAGCGAAGC (((..((....))..))): yes
- GATCGCTTATGCGATC ((((((....)))))): no
- GCAGGCGAAAGCCGCTGC ((((((....)))..))): yes
- GCTCATGGAAACATGAAC (.(((((....))))).): yes
- GATCTGCATCCAGATC ((((((....)))))): no
- GATCAAGTCATTGATC ((((((....)))))): no
- GACTATCCGAAAGGAGTC (((..(((....)))))): yes

Now for a further sequence.
stdin: # check: folding enthalpy of GATCCCAAGCGGGATC ((((((....)))))) is greater than or equal to -30 kcal/mol
stdout: no

* * *

# experimental-details: folding enthalpy; higher = less favourable; fluorescence melt of hairpins on a sequencing array, two-state fit
# condition-set: sodium 0.088 M
recorded-endpoint: folding enthalpy (kcal/mol)
Numbers only, in kcal/mol.

* GATCGTAACCACGATC ((((((....)))))) | -35.8
* GGACCCGCGAAAGCGTCC (((..(((....)))))) | -12.4
* GATCGTATAGACGATC ((((((....)))))) | -38.1
* GTTATCCGAAAGGAAAAC (((.(((....))).))) | -25.2
* GAAACCGAAAGGTTTTC ((((((....))).))) | -17.3

Shift focus to the following entry.
stdin: Note folding enthalpy for the sequence shown: GCGTGCGAAAGCACCCGC ((((((....)))..)))
stdout: -10.1

* * *

# experimental-details: melting temperature; fluorescence melt of hairpins on a sequencing array, two-state fit, raised by 9.35 °C to match UV melts
# condition-set: sodium 0.088 M
recorded-endpoint: Tm (°C)
Give bare numbers, in °C.

Solved entries (count: 5):
- GCGAGCTTTCGC ((((....)))): 50.5
- GCTGACGAAAGTCCGAGC ((((((....)))..))): 37.6
- GATCTTATAAAAGATC ((((((....)))))): 40
- GATCATCGTATGATC ((((((...)))))): 48.5
- GATCCTGTGGAGGATC ((((((....)))))): 51.8

For each of the items listed, what is its Tm?
1. GTTTTTGGAAACAGAAAC ((((.((....)).))))
2. CGCCCGGAAACGGCCGCG ((((((....)))..)))
3. GGTGATGGAAACATCATC (.(((((....))))).)
4. GGTGTTGGAAACGACACC (((((.(....).)))))
5. GCCATCGAAAGATTTGGC ((((((....)))..)))
6. GGAGACGAAAGTCGGTCC ((((((....)))..)))
7. GCTAGCGAAAGCTATAGC ((((((....)))..)))

stdout:
1. 32.7
2. 43.8
3. 47.8
4. 54.3
5. 41.3
6. 39.8
7. 46.5

* * *

# experimental-details: melting temperature; fluorescence melt of hairpins on a sequencing array, two-state fit, raised by 9.35 °C to match UV melts
# condition-set: sodium 0.088 M
recorded-endpoint: Tm (°C)
One number for each entry, in °C.

Solved entries (count: 4):
* GATTCAGGAAACTGGATC (((.(((....))).))) | 41.9
* GTCAAAGGAAACCTTGAC (((((.(....).))))) | 38.2
* GGTTTGGGAAACCAAATC (.(((((....))))).) | 44.5
* GGGCTCACGAAAGTGCCC (((..(((....)))))) | 51.9

For each of the items listed, what is its Tm?
1. GATCCTAGGAAGGATC ((((((....))))))
2. GATCTGACTTCAGATC ((((((....))))))
3. GTCATGCGAAAGCACGAC (((.(((....))).)))
4. GGAAGCGAAAGCTTGTCC ((((((....)))..)))
5. GCGGTGCGAAAGCCGCGC (((..((....))..)))

stdout:
1: 50.1; 2: 49.2; 3: 52.3; 4: 35.8; 5: 68.9

* * *

# experimental-details: melting temperature; fluorescence melt of hairpins on a sequencing array, two-state fit, raised by 9.35 °C to match UV melts
# condition-set: sodium 0.088 M
recorded-endpoint: Tm (°C)
Give bare numbers, in °C.

Solved entries (count: 4):
- GATCTCCGGAGAGATC ((((((....)))))): 52.7
- GATCGTTGTAACGATC ((((((....)))))): 58.4
- GCAGAGCGAAAGCTTCGC ((..(((....)))..)): 44.8
- GCTTATCCGAAAGGAAGC (((..(((....)))))): 34.3

For each of the items listed, what is its Tm?
1. CGCTGTCGGAAACGAGCG (((..(((....))))))
2. GCGGACCTCCGC ((((....))))
3. GCAATGGGAAACCATTGC (((((((....)))))))
4. GATCAAAACATTGATC ((((((....))))))
5. GAGAAGGGAAACCTTTTC ((.((((....)))).))
6. GATCGAAAACTCGATC ((((((....))))))

stdout:
1. 45.2
2. 55.9
3. 66.2
4. 42.3
5. 28.8
6. 47.2

For each of the items listed, what is its Tm?
1. GCGCAGACGAAAGTCCGC (((..(((....))))))
2. GATCTCGCCTGAGATC ((((((....))))))

stdout:
1: 52.4; 2: 54

* * *

# experimental-details: melting temperature; fluorescence melt of hairpins on a sequencing array, two-state fit, raised by 9.35 °C to match UV melts
# condition-set: sodium 0.088 M
Answer not met if Tm is under 50 °C, and met if it is 50 °C or more.

Past entries and their recorded results:
* GCGGTATCGAAAGATCGC (((..(((....)))))) | not met
* GAGGAACCGAAAGGTCTC (((..(((....)))))) | not met
* GATCGGCGAAAGCCAATC (((.(((....))).))) | not met

stdin: # check: Tm of GGGAATGAAAATTCCC ((((((....)))))) is greater than or equal to 50 °C
stdout: met

stdin: # check: Tm of GCTGCGCGAAAGCGGGGC ((..(((....)))..)) is greater than or equal to 50 °C
stdout: met

stdin: # check: Tm of GGAGCCGAAAGGCTGTCC ((((((....)))..))) is greater than or equal to 50 °C
stdout: not met

stdin: # check: Tm of GGCGTAGGAAACTACACC ((.((((....)))).)) is greater than or equal to 50 °C
stdout: not met

* * *

# experimental-details: folding enthalpy; higher = less favourable; fluorescence melt of hairpins on a sequencing array, two-state fit
# condition-set: sodium 0.088 M
Answer 0.0 if folding enthalpy is under -20 kcal/mol, and 1.0 if it is -20 kcal/mol or more.

stdin: # check: folding enthalpy of GATCCAGGCTGGATC ((((((...)))))) is greater than or equal to -20 kcal/mol
stdout: 0.0

stdin: # check: folding enthalpy of CGAACCGGAAACGGGTCG (((.(((....))).))) is greater than or equal to -20 kcal/mol
stdout: 0.0

stdin: # check: folding enthalpy of GAATGAGGAAACTCATCC (.(((((....))))).) is greater than or equal to -20 kcal/mol
stdout: 1.0

stdin: # check: folding enthalpy of GGTACTGGAAACAGTATC (.(((((....))))).) is greater than or equal to -20 kcal/mol
stdout: 0.0

stdin: # check: folding enthalpy of GACAACGAAAGTTCAGTC ((((((....)))..))) is greater than or equal to -20 kcal/mol
stdout: 1.0

stdin: # check: folding enthalpy of GATCGGGGTCCCGATC ((((((....)))))) is greater than or equal to -20 kcal/mol
stdout: 0.0

stdin: # check: folding enthalpy of GTGCCCGAAAGGGTCCAC ((((((....)))..))) is greater than or equal to -20 kcal/mol
stdout: 1.0

stdin: # check: folding enthalpy of GCGGGGGGAAACTCCCGC (((((.(....).))))) is greater than or equal to -20 kcal/mol
stdout: 0.0

stdin: # check: folding enthalpy of GCTACGCGAAAGCTTCGC ((.(.((....)).).)) is greater than or equal to -20 kcal/mol
stdout: 1.0

stdin: # check: folding enthalpy of GTTATAGGAAACTATGAC ((.((((....)))).)) is greater than or equal to -20 kcal/mol
stdout: 0.0

stdin: # check: folding enthalpy of GATCATTCATATGATC ((((((....)))))) is greater than or equal to -20 kcal/mol
stdout: 0.0

stdin: # check: folding enthalpy of GCTTGAGGAAACTCAAGC (((((((....))))))) is greater than or equal to -20 kcal/mol
stdout: 0.0
